B1: ANKRD40 (parent)
chain: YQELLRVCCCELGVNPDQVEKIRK

# Variants of: B1
# measurement-description: protein stability index of a GFP-peptide fusion (GPS, HEK-293T) (PSI 1-6); higher = more stable;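 note: lentivirally expressed fusions sorted by FACS into six bins by GFP to DsRed ratio, PSI derived from sequencing read proportions per bin multiplied by bin number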
# assay-setup: c terminus: a fixed tail appended
readout-kind: protein stability index

Data request: Value lookup for protein stability index; key = YQELLRVCCCELGVNYDQVEKIRK [P16Y]
Data returned: 1.99

Data request: Try the variant YQELLRVCCCELGVNPDQVEKNRK [I22N]
Data returned: 3.16

Data request: Subsequent entry: YQESLRVCCCELGVNPDQVEKIRK [L4S]
Data returned: 2.27

Data request: Same question for YQELLRVCCCELGVNPIQVEKIRK [D17I] please.
Data returned: 1.69

Data request: Check YQELLRVCCCERGVNPDQVEKIRK [L12R] too.
Data returned: 1.7

Data request: And YQELLRVCMCELGVNPDQVEKIRK [C9M] ?
Data returned: 1.81

Data request: Would you mind doing YQELLRVCCSELGVNPDQVEKIRK [C10S] as well?
Data returned: 2.24

Data request: Try YQYLLRVCCCELGVNPDQVEKIRK [E3Y] next.
Data returned: 1.66

Data request: What do you get for YQELLRVCCCELGVNPDQVRKIRK [E20R] ?
Data returned: 1.96

Data request: Param item: YQELLRVCHCELGVNPDQVEKIRK [C9H]
Data returned: 2.15

Data request: # iterate: YQELLRVCCCELGVNPDQWEKIRK [V19W]
Data returned: 1.75

Data request: Entry YQELLRVCCCELGVNPDQVEKVRK [I22V] please
Data returned: 1.41

Data request: Further, for YQELLRVCCCELGVNPWQVEKIRK [D17W] ?
Data returned: 2.12

Data request: Check SQELLRVCCCELGVNPDQVEKIRK [Y1S] too.
Data returned: 2.65

Data request: And for YQELLRVCCCELGVNPDQQEKIRK [V19Q] ?
Data returned: 2.29

Data request: Queued: YQELLRVCCCELGVNPDQVIKIRK [E20I]
Data returned: 3.43

Data request: Now try YQELLRVCCCELGVNPDQVENIRK [K21N] .
Data returned: 1.85

Data request: Consider next the variant YQELDRVCCCELGVNPDQVEKIRK [L5D] in the same way.
Data returned: 3.26
